Measured values drawn from PubChem BioAssay for this set.

system.name: NADPH oxidase 5 (Homo sapiens) (UniProt Q96PH1)
Sequence (Q96PH1 whole entry, looked up): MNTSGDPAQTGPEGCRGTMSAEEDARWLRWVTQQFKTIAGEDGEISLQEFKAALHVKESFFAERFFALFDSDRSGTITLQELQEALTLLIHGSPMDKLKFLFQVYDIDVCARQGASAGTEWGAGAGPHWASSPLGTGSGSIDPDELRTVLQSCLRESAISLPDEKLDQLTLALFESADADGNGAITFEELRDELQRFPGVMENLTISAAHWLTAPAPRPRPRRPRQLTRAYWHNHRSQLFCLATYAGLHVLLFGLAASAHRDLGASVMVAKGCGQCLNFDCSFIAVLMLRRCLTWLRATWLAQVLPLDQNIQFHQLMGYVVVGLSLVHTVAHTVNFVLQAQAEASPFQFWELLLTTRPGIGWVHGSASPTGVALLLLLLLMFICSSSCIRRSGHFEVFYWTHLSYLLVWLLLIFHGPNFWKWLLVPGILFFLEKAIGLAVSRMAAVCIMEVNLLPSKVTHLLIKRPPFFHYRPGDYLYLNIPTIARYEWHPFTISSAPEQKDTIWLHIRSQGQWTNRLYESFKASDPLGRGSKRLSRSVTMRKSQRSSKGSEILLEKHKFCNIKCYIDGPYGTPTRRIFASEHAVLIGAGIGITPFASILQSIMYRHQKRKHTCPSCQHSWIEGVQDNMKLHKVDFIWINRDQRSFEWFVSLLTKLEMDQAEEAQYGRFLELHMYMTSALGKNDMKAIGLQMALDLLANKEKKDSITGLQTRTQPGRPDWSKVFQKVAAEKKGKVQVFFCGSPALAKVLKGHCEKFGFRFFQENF
experiment.notes: NOX5-dependent H2O2 signal modulators, primary screen, NOX inhibitor project, cell-based, HEK293-NOX5, Amplex Red fluorescence (AID 1161)
details: HEK293-NOX5, ionomycin, 45 min, higher = more signal
measured.attribute: z-score

entry.smiles | meas.value
C=C(COC)/C(=C/C[C@@H](OC(C)=O)c1ccccc1OCCO)c1cc(C(=O)OC)ccc1OC | -1.46
C#CCN=C(N)N | -0.0927
COCCOC(=O)N1C(=O)[C@@]2(c3cc(C#Cc4ccc(OC)cc4)ccc31)[C@H](c1ccc(OCCO)cc1)N1[C@H](c3ccccc3)[C@H](c3ccccc3)OC(=O)[C@H]1[C@@H]2C(=O)N1CCCCCCC1 | 1.19
COc1ccc([Si](C)(C)[C@@H]2[C@@H](CC(=O)N(CCO)Cc3ccccc3)O[C@]3(C(=O)N(Cc4ccc(N5CCC5=O)cc4)c4ccccc43)[C@H]2C)cc1 | 3.52

----------
Measured composite z-score by item
experiment.notes: binders of probe aFST on microarray, primary screen, stem cell growth factor project, biochemical, small-molecule microarray, fluorescence 635/667 (AID 1086);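 note: score merges 667 nm fluorescence with signal-to-noise of each printed compound spot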
details: higher = more signal
measured.attribute: composite z-score

molecule | meas.value
C=C(/C(=C/C[C@H](OC(=O)c1ccncc1)c1ccccc1OCCO)c1cc(C(=O)OC)ccc1OC)C(C)C | 0.265
NC(=O)N1C(=O)C2C(C1=O)C1C=C(CCCO)C2C(c2ccc(CN3CCCC3)cc2)N1Cc1cccc(OC(F)(F)F)c1 (stereo not given) | 0.0635
O=C1N(CCS(=O)(=O)c2ccccc2)c2ccccc2[C@@H]2OC(c3ccc(OCCCO)cc3)=N[C@]12CCS(=O)(=O)c1ccccc1 | 0.855
COc1ccc(CCNC(=O)[C@@]2(Sc3ccc(C)cc3)CC(=O)N(Cc3cc(C(F)(F)F)cc(C(F)(F)F)c3)[C@@H]2c2ccc(CO)cc2)cc1 | -0.498
C[C@H]1C2[C@H](Cc3ccccc3)NC(=O)[C@]23C(=O)NCC(=O)N2CCC[C@H]2C(=O)NC/C=C\C/C=C/C3[C@@H]2O[C@]12C (stereo not given in full) | -0.274
CC(C)C(=C=CC[C@@H](O)c1ccc(OCCO)cc1)CCO | -0.315
C=C(COC)C(=O)CC[C@@H](OC(=O)c1cccnc1)c1cccc(OCCO)c1 | 0.532
CN(C)C(=O)[C@]1(Cc2ccccc2)N=C(c2ccc(OCCCO)cc2)O[C@@H]1c1ccccc1 | 0.952
COc1ccc(C(O)C2C=CC3C(=O)N(C)C(=O)C3N2Nc2ccc([N+](=O)[O-])cc2[N+](=O)[O-])cc1OCc1ccccc1 (stereo not given) | 1.04
C=CCN1C(=O)[C@]2(O[C@H](CCn3cc([C@H](O)c4ccccc4)nn3)[C@@H]([Si](C)(C)c3ccc(OC)cc3)[C@@H]2C)c2cc(N3C(=O)c4cccc5cccc3c45)ccc21 | -0.516
COC(=O)C1(CC(C)C)C=C2C(=C(C(C)C)C(=O)C2C)CN1 (stereo not given) | 0.315
NCCCC[C@@H]1NC(=O)[C@H]2C[C@@H](C(=O)O)[C@@H](c3cccc(OCCO)c3)N2C1=O | 2.16
CCc1cccc(NC(=O)O[C@H]2[C@H](OC(=O)Nc3ccc4c(c3)OCO4)[C@H](OC(=O)Nc3ccc4c(c3)OCO4)[C@@H](OC)O[C@@H]2CO)c1 | 0.318
CCCCN1CC=CC23O[C@@H]4/C=C\CCC(C)OC(=O)C4[C@H]2C(=O)N(C(C)CO)[C@@H]3C1=O (stereo not given in full) | -0.536
O=C1c2ccccc2[C@@]2(Cc3ccccc3N(Cc3ccccc3)C2=O)[C@H](c2ccc(CO)cc2)N1Cc1ccccc1 | -0.351

----------
# z-score per entry
experiment.notes: Plasmodium falciparum growth inhibition, primary screen, strain 3D7, DAPI fluorescence, 100 nL (AID 1184);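 note: parasites grown inside human red blood cells in medium with human serum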
details: P. falciparum 3D7 growth, 3 d, higher = more signal
measured.attribute: z-score

molecule | measured.attribute | meas.value
CC1CC/C=C\[C@H]2OC34C=CCN(c5ccc(Cl)cc5)C(=O)[C@H]3N(CCCO)C(=O)[C@]4(C)C2C(=O)O1 (stereo partly drawn) | z-score | 0.4
C=C(COC)/C(=C/C[C@@H](OC(C)=O)c1ccccc1OCCO)c1cc(C(=O)OC)ccc1OC | z-score | -2.76
CC(C)CNC(=O)[C@@H]1c2ccccc2C(=O)N(Cc2ccccc2)[C@H]1c1ccc(CO)cc1 | z-score | -0.172
C=C(COC)C(=O)CC[C@@H](OC(=O)c1cccnc1)c1cccc(OCCO)c1 | z-score | -2.53
O=C1N(CCS(=O)(=O)c2ccccc2)c2ccccc2[C@@H]2OC(c3ccc(OCCCO)cc3)=N[C@]12CCS(=O)(=O)c1ccccc1 | z-score | -2.18
CCCCC(O)C1C=CC2C(=O)N(C)C(=O)C2N1Nc1ccccc1 (stereo not drawn) | z-score | -0.286
CO[C@H]1O[C@H](CO)[C@@H](OC(=O)Nc2ccc(C(F)(F)F)cc2)[C@H](OC(=O)Nc2ccccc2-c2ccccc2)[C@H]1OC(=O)Nc1ccccc1-c1ccccc1 | z-score | -1.8
O=C1C2C=CC(C(O)C(c3ccccc3)c3ccccc3)N(Nc3ccccc3)C2C(=O)N1c1ccccc1 (stereo not drawn) | z-score | -0.28

----------
experiment.notes: basal RPMI8226 mitochondrial membrane potential changes, profiling panel, cell-based, JC-1 fluorescence, 24 h, 100 nL compound (AID 1169); note: test concentration not given here
details: RPMI8226 myeloma, JC-1 mitochondrial potential fluorescence, higher = more signal
# reported z-score; entries follow

molecule | z-score
COc1cccc(C[C@H]2C[C@@H](CO[Si](C(C)C)(C(C)C)C(C)C)N3C(=O)[C@@]4(C(C)=O)O[C@@]23[C@@H]2C(=O)N(C)C(=O)[C@@H]24)c1 | -0.846
COCCOC(=O)N1C(=O)[C@@]2(c3cc(C#CC4=CCCCC4)ccc31)[C@H](C(=O)N1CCc3cc(OC)c(OC)cc3C1)[C@H]1C(=O)O[C@H](c3ccccc3)[C@H](c3ccccc3)N1[C@@H]2c1ccc(O)cc1 | -0.388
COc1ccc(C#Cc2ccc3c(c2)[C@]2(C(=O)N3)[C@H](C(=O)Nc3nc4ccccc4s3)[C@H]3C(=O)O[C@H](c4ccccc4)[C@H](c4ccccc4)N3[C@@H]2c2ccc(OCCO)cc2)cc1 | -1.21
COc1ccc([Si](C)(C)[C@H]2[C@H](CCn3cc([C@H](O)c4ccccc4)nn3)O[C@@]3(C(=O)N(C)c4c(Br)cc(C)cc43)[C@@H]2C)cc1 | -1
COC(=O)C1=CC(CCCO)=CC(C2CC2)N(Cc2cccc(OC(F)(F)F)c2)C=C1C(=O)OC (configuration not stated) | -0.862
C=C(COC)C(=O)CC[C@@H](OC(C)=O)c1ccc(OCCO)cc1 | -0.652
COC(=O)[C@@]1(CCS(=O)(=O)c2ccccc2)N=C(c2ccc(OCCCO)cc2)O[C@H]1c1ccccc1N=[N+]=[N-] | -0.687

----------
experiment.notes: small-molecule binders of probe aNOTCH2, primary screen, biochemical, small-molecule microarray, 635/667 nm fluorescence (AID 1121);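 note: score merges feature fluorescence read at 667 nm with its signal to noise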
details: higher = more signal
measured.attribute: composite z-score

compound | meas.value
COCCOC(=O)N1C(=O)[C@@]2(c3cc(C#CC4=CCCCC4)ccc31)[C@H](c1ccccc1OCCO)N1[C@H](c3ccccc3)[C@H](c3ccccc3)OC(=O)[C@H]1[C@@H]2C(N)=O | -0.0728
C=CCC(OC(C)=O)[C@@H]1[C@@H](N(Cc2ccc(-c3cccc(C(F)(F)F)c3)o2)C(=O)Cc2ccc(F)cc2)c2cc(OCCCO)ccc2N1C(=O)c1ccc2ccccc2n1 (stereo partly specified) | -0.0664
CN(C)C(=O)[C@]1(Cc2ccccc2CN=[N+]=[N-])N=C(c2ccc(OCCCO)cc2)O[C@@H]1c1ccccc1N=[N+]=[N-] | -0.153
COCCOC(=O)N1C(=O)[C@@]2(c3cc(C#CC4(O)CCCCCC4)ccc31)[C@H](C(=O)NC[C@H](O)c1ccccc1)[C@H]1C(=O)O[C@H](c3ccccc3)[C@H](c3ccccc3)N1[C@@H]2c1ccc(O)cc1 | -0.0846
CC(C)CNC(=O)[C@@H]1c2ccccc2C(=O)N(Cc2ccccc2)[C@H]1c1ccc(CO)cc1 | -0.122
COCCOC(=O)N1C(=O)[C@@]2(c3cc(C#CCNC(N)=O)ccc31)[C@H](C(=O)NC[C@H](O)c1ccccc1)[C@H]1C(=O)O[C@H](c3ccccc3)[C@H](c3ccccc3)N1[C@@H]2c1ccc(OCCO)cc1 | -0.2

----------
experiment.notes: binders of probe aFSTL3 on microarray, primary screen, stem cell growth factor project, biochemical, small-molecule microarray, fluorescence 635/667 (AID 1064);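 note: measures binding of the biotinylated anti-FSTL3 antibody to printed compounds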
details: higher = more signal
measured.attribute: composite z-score

compound | meas.value
COc1ccc([Si](C)(C)[C@@H]2[C@@H](CCO)O[C@]3(C(=O)N(Cc4ccccc4)c4ccc(N5C(=O)c6ccccc6Oc6ccccc65)cc43)[C@H]2C)cc1 | -0.0276
O=C1OCCC=C[C@H]2OC34C=CCN(CCN5CCOCC5)C(=O)[C@H]3N(CCCO)C(=O)[C@@H]4C12 (some centres undefined) | -0.0143
N[C@@H](Cc1ccccc1)Cn1cc(C2(O)CCCCC2)nn1 | -0.337
CCc1cccc(NC(=O)O[C@H]2[C@H](OC(=O)Nc3ccc4c(c3)OCO4)[C@H](OC(=O)Nc3ccc4c(c3)OCO4)[C@@H](OC)O[C@@H]2CO)c1 | 0.0053
